I'd be grateful if you could share measured protein stability index for these entries.
Test system: Saccharomyces cerevisiae
Experiment: protein stability index of tFT-peptide fusion in deletion strain of DAS1 (PSI (0-1 scale)); higher = more stable (slower turnover)
Enter a number only.

Q: So what does the record say about protein stability index for `LKILRQKMNHQN` ?
Result: 0.674

Q: Again, but for `PDKRNHLIKLLNK`
Result: 0.67

Q: Thanks! And `ARWRVGLWRKAS` ?
Result: 0.672

Q: Lookup `KKHKKCQKQKIN`
Result: 0.548

Q: Same for `CTSCGYKFRTNL`
Result: 0.703

Q: Another sequence: `LKILRQSMNHQN`
Result: 0.661

Q: Queued: `PSLAASFNRVVG`
Result: 0.673

Q: // query: `PSLAASFWRIVG`
Result: 0.675

Q: Next sequence: `FSMRHTFRYWVN`
Result: 0.588

Q: // next record `ARWRVGLWRWAS`
Result: 0.694

----------
System: Saccharomyces cerevisiae
Test: protein stability index of tFT-peptide fusion (C-terminal peptide) (PSI (0-1 scale)); higher = more stable (slower turnover)
Conditions: genetic background: wild type; temperature: 30 C
measuredParameter: protein stability index
Just the number, please, no unit after it.

Q: Identify the measured protein stability index of `KGSKGELGVHVG` for Saccharomyces cerevisiae.
Result: 0.671

Q: How about this sequence: `VICSIRGYNRLR`
Result: 0.711

Q: What do you have for `TSYFRRRRSHSH` ?
Result: 0.753

Q: Same for `LAGLVRFWGCVG`
Result: 0.341

Q: Could you do the same for `DKSHRKNKKKRN` , please?
Result: 0.699

Q: Now give it for `PPPPAPSPPIPP` too.
Result: 0.692

Q: Can you check `SMRFLGIKLKKY` next?
Result: 0.648

Q: Thanks! And `PPLPPPSVRPSS` ?
Result: 0.63

Q: Same for `RGRKEQSKKKKE`
Result: 0.647

Q: Continue with `YKGQVKKNNPQC`
Result: 0.726

Q: Input `SLSPPSSPLPPP`
Result: 0.703

Q: Next sequence: `PPPLPPPPPPPP`
Result: 0.673

Q: Can you handle `PPPPPRPPLPHL` next?
Result: 0.686

Q: Another sequence to look at: `CNNRNKRMRKYI`
Result: 0.669

Q: Repeat with `AESCRASVVFGV`
Result: 0.685

Q: Query `ASVCASCYTGGF` next
Result: 0.665

Q: `PAPHPPIPHQPP` , same question.
Result: 0.532

Q: Moving on to the next sequence: `PRPPPPPPPLPP`
Result: 0.692

Q: # iterate: `GFFLLSFLFFVR`
Result: 0.224

----------
Test system: Saccharomyces cerevisiae
Test: protein stability index of tFT-peptide fusion in deletion strain of DAS1 (PSI (0-1 scale)); higher = more stable (slower turnover)
measuredParameter: protein stability index
Lab note: record just the number, no unit beside it.

Q: Given the entry `RLIQPLPVQFLNA` , what protein stability index was observed with Saccharomyces cerevisiae?
Result: 0.612

Q: Next entry: `RLIQPLPVPFLN`
Result: 0.607

Q: Next up: `PSLAASFWWVVG`
Result: 0.718

Q: And then `VRGFVGGWRLVG` , what is it?
Result: 0.691

Q: Next record, please: `RLIQPLPVNFLN`
Result: 0.579

Q: Field entry: `CTSCGYLFRTNN`
Result: 0.698

Q: Repeat with `VVVYLSCVACIN`
Result: 0.0435

Q: Moving on to `LVVYHSCVACIN`
Result: 0.313

Q: Now the same for `PDKRNHLIKHLN`
Result: 0.601

Q: Note, next up: `CTSCGYKFVTNN`
Result: 0.692

----------
Test system: Saccharomyces cerevisiae
Assay: protein stability index of tFT-peptide fusion (C-terminal peptide) (PSI (0-1 scale)); higher = more stable (slower turnover)
Conditions: genetic background: wild type; temperature: 30 C
Please use Fulfilled whenever protein stability index is not below 0.7, and Not fulfilled whenever it is.

Q: I'd appreciate it if you could say whether `PSPPLPPRPPTL` has protein stability index at least equal to 0.7.
Result: Fulfilled

Q: Then `RRGAVHWKQFTR` ?
Result: Fulfilled

Q: What would you report for `PPLAPDPPPRVY` ?
Result: Not fulfilled

Q: What about `TQHKANQGLELI` ?
Result: Not fulfilled

Q: Another sequence: `AGGGARLGVGRA`
Result: Not fulfilled

Q: Can you check `NAGHTGPYADGN` next?
Result: Not fulfilled

Q: Also check `FLVFRFPFGFSC`
Result: Not fulfilled

Q: How about this sequence: `LGAAMRSAVEAA`
Result: Not fulfilled

Q: How about `VKVKMKIIIIIK` ?
Result: Not fulfilled

Q: Try this sequence next: `SSNLLFCSIFYV`
Result: Not fulfilled

Q: Same thing, different sequence: `CDCDESYFNPLG`
Result: Not fulfilled

Q: Do the same for `AGAGLGGVLGWW` please
Result: Not fulfilled

Q: Another: `KITKRTKKTKEN`
Result: Not fulfilled

Q: Can you handle `PRPSPPPVSPRP` next?
Result: Fulfilled

Q: // query: `IKTLLDYESMRS`
Result: Fulfilled

Q: Please do the same for `FGAATLFLLAPC` as well.
Result: Not fulfilled

Q: // query: `GGAAWRRGVGGV`
Result: Not fulfilled

Q: Now this one: `LASVLRESRIST`
Result: Not fulfilled

Q: Entry to check: `AESLGLNYGSVY`
Result: Not fulfilled

Q: Field entry: `VLFLVGLCRDFA`
Result: Not fulfilled

Q: Next: `LHAPFPHPPPPP`
Result: Not fulfilled

Q: `LPLSPPPLPSSR` , same question.
Result: Not fulfilled

Q: Entry to check: `ILVFHFWPFLVR`
Result: Not fulfilled

Q: What do you have for `RRHGTDEHKTAD` ?
Result: Not fulfilled

Q: Next sequence: `LLSVVLPDSSLP`
Result: Fulfilled

Q: What would you report for `PPPQGSQPSTLS` ?
Result: Fulfilled

Q: Ok, now `PPPPPPTRCHTP`
Result: Fulfilled

Q: Another sequence: `SRARPPLLPFPP`
Result: Not fulfilled

----------
System: Saccharomyces cerevisiae
Test: protein stability index of tFT-peptide fusion (C-terminal peptide) (PSI (0-1 scale)); higher = more stable (slower turnover)
Details: genetic background: doa10 deletion; temperature: 30 C
Exercise: state measured protein stability index for each of the sequences provided.

Q: State the recorded protein stability index for this entry: `LLRFFPLLLFSF`
Result: 0.181

Q: Can you check `VCDPWVFIRCLV` next?
Result: 0.11

Q: Then `GDLEFCCLIIVL` ?
Result: 0.27

Q: What would you report for `KNVFLIRGRKNC` ?
Result: 0.154

Q: Follow-up entry: `KDIFQIYTLYVF`
Result: 0.277

Q: Another sequence to check: `VVLWVVCWGCWK`
Result: 0.179

Q: // repeat for `GLLLRLRNLFCM` and report
Result: 0.387

Q: Try this sequence too: `PTPSRPPHPPLR`
Result: 0.658

Q: Moving on to the next sequence: `VFLLLSLSVFFE`
Result: 0.109

Q: Again, but for `TYSVIPSLALLP`
Result: 0.648

----------
Please provide measured protein stability index for the entries that follow.
Tested on: Saccharomyces cerevisiae
Assay: protein stability index of tFT-peptide fusion (C-terminal peptide) (PSI (0-1 scale)); higher = more stable (slower turnover)
Conditions: genetic background: wild type; temperature: 30 C
// no unit, no text: just the number

Q: // lookup protein stability index for `YSLASRVVNFCA`
Result: 0.497

Q: Entry to check: `QCRLPRPPLSLP`
Result: 0.436

Q: Then this sequence: `DFVESKVCSCSV`
Result: 0.666

Q: Also `FGGGSHRRGRCR` , if possible.
Result: 0.68

Q: Same for `LTYFCTLPATLK`
Result: 0.663

Q: Same question, `LFGHMENNLLKS` this time
Result: 0.722

Q: Next: `NYRGEKYDKREH`
Result: 0.569

Q: Repeat with `FSVGSPLSSPGI`
Result: 0.713

Q: Further, for `PSSVKLRVPSLY` ?
Result: 0.707

Q: Do the same for `EPAWVNDQKERS` please
Result: 0.832

Q: How about `SRLMLPLSPLVC` ?
Result: 0.379

Q: Query `IINKRKKKKDKG` next
Result: 0.644

Q: Continue with `SLGGFLPPESFV`
Result: 0.708

Q: How about `PSPPPPLAPCLP` ?
Result: 0.666

Q: Param item: `WGTDVGAGCVAR`
Result: 0.741

Q: `RFCIARGSLLDY` ?
Result: 0.554

Q: Also need `TYKHIVRVNKCE` , thanks.
Result: 0.318

Q: What would you report for `CDSVATFCLRLF` ?
Result: 0.623

Q: Next entry: `FYLSSCFLFLRF`
Result: 0.355

Q: Subsequent entry: `RPRKTVTDLMAG`
Result: 0.663

Q: Same again, this time with `KESEKRKRENKN`
Result: 0.698

Q: `SCLSLSGLPSPL` ?
Result: 0.677

Q: Moving on to `SGRSGECEGSWD`
Result: 0.662

Q: Entry to check: `SFFSQAIPILAA`
Result: 0.225

Q: Further, for `CLSFCFGISVFD` ?
Result: 0.616

Q: Next: `DIHLSRQKTRIL`
Result: 0.752

Q: Next sequence: `GQRRDSSSEVWG`
Result: 0.67

Q: Also `RHSHSLSITHLP` , if possible.
Result: 0.675

Q: Param item: `YSFFTLCLSLPA`
Result: 0.557

Q: Another sequence to look at: `LGGGARGSGGGA`
Result: 0.727

Q: What about `DREGIELHKNKD` ?
Result: 0.658

Q: Please answer likewise for `EVTEIAQFRDKR`
Result: 0.7

Q: Here is the next sequence: `LVHDQKFSCNWL`
Result: 0.74

Q: Also need `LVCPLFCSRWWV` , thanks.
Result: 0.674

Q: What would you report for `RPPPPRLTPPRL` ?
Result: 0.756

Q: Try the sequence `RDPERYAQLTAP`
Result: 0.776

Q: Okay, and `FATPDGFVSLWF` ?
Result: 0.774

Q: What do we get for `SIMSVLPYCSCS` ?
Result: 0.708

Q: Next entry: `LVRHCIPIIPPP`
Result: 0.638

Q: Can you check `HILSPPPRPPLV` next?
Result: 0.719

Q: What do we get for `PPLPRSPSPPPP` ?
Result: 0.644

Q: Here is the next sequence: `RRGGNIVWYCLV`
Result: 0.234

Q: Okay, and `ERLACRFRTVVM` ?
Result: 0.595

Q: // repeat for `KKKIKKKSIKKT` and report
Result: 0.707

Q: Also `MAVYLKYSLLRL` ?
Result: 0.515

Q: Same read-out for `VISVFAISTRVD` ?
Result: 0.475

Q: One more sequence: `KDDHTLMTKYNA`
Result: 0.643

Q: Now the sequence `HPSRPPRASPPS`
Result: 0.693

Q: How about `DCREALLAKVYL` ?
Result: 0.627

Q: Same again, this time with `PAVLLGPCARVP`
Result: 0.699

Q: What do you have for `IHVKKNQACSLF` ?
Result: 0.646

Q: One more sequence: `LQHRHSTSPRPT`
Result: 0.657

Q: Now give it for `WLVCAGWVVLSC` too.
Result: 0.265

Q: Please do the same for `PNSTIVATKGVT` as well.
Result: 0.648

Q: Also need `SLLPLSTPPASP` , thanks.
Result: 0.624

Q: Please answer likewise for `PPPSPAPLPAGP`
Result: 0.682

Q: Try `KQKQNKKKNNKT` next.
Result: 0.843

Q: Cool, now `VRLMARFESFLW`
Result: 0.69

Q: Please do the same for `PPHPPAPHPSPT` as well.
Result: 0.733

Q: # iterate: `RSGFTSSPLRSG`
Result: 0.681

Q: Another: `ALLPLTHLPLHP`
Result: 0.666

Q: Try `LPRPAPPIRPRT` next.
Result: 0.74

Q: Now consider `SIYIEKERKMIV` .
Result: 0.686

Q: Quick one: `ASSPAPPSPTPP`
Result: 0.7

Q: What about `PPPPPPPYPLIP` ?
Result: 0.67

Q: Entry `HLPPPPTLPPFP` please
Result: 0.69

Q: Ok, now `SPAASPVPLHPR`
Result: 0.603

Q: Can you check `KKKKNKKNKRKN` next?
Result: 0.613

Q: Could you do the same for `RIGELRYATQMK` , please?
Result: 0.676

Q: Repeat for the following sequence: `RSVPHPGGPSPC`
Result: 0.649

Q: What do you have for `IKVKRRQLKQEK` ?
Result: 0.779

Q: Check `PLLPLRSPPPLV` too.
Result: 0.637

Q: Field entry: `MCVFGLFCSCFD`
Result: 0.586

Q: Item: `LSVYGFYKMPAG`
Result: 0.502

Q: Repeat for the following sequence: `GVSLRVFVVSVC`
Result: 0.212

Q: Do the same for `KKKNKEKSKKKK` please
Result: 0.761

Q: Okay, and `MLSWKASWRQPV` ?
Result: 0.664

Q: Okay, and `IPLSPLRSPPPR` ?
Result: 0.648

Q: What about `WSGWGYGISALL` ?
Result: 0.681

Q: And what about the sequence `GPALCPVWATYG` ?
Result: 0.591

Q: Next up: `PGCLMGSRGFSN`
Result: 0.785

Q: Try this sequence too: `PRPPPPSPIPPL`
Result: 0.726
